Provide the recorded kinact/KI for the entries that follow.
- tested system: HIV-1 protease (Human immunodeficiency virus type 1 group M subtype B, UniProt P04585)
- Construct: 2.6 nM of HIV-1 protease
- protocol details: Assay for inhibitory effect on HIV protease (residual enzyme activity, HPLC of substrate cleavage)
- Format: biochemical
- experimental conditions: second order rate constant; HIV-1 protease, pH 5.5; read-out: kina /KI (converted)
The figure you give is taken to be in M⁻¹ s⁻¹; do not add the unit.

GET /value?item= CC[C@H](C)[C@H](NC(=O)C[C@@H]1O[C@@H]1[C@H](CC1CCCCC1)NC(=O)[C@H](CC(N)=O)NC(=O)c1ccc2ccccc2n1)C(=O)OC &field=kinact/KI returns 36700

The molecule CONC(=O)[C@@H](NC(=O)C[C@@H]1O[C@@H]1[C@H](Cc1ccccc1)NC(=O)[C@H](CC(N)=O)NC(=O)c1ccc2ccccc2n1)C(C)C showed kinact/KI equal to 183000

response.value for CC[C@H](C)[C@H](NC(=O)C[C@@H]1O[C@@H]1[C@H](Cc1ccccc1)NC(=O)[C@H](CC(N)=O)NC(=O)c1ccc2ccccc2n1)C(=O)OC (field: kinact/KI) = 200000

molecule CC[C@H](C)[C@H](NC(=O)C[C@@H]1O[C@@H]1[C@H](Cc1ccccc1)NC(=O)[C@H](CC(N)=O)NC(=O)c1ccc2ccccc2n1)C(=O)NOC , kinact/KI observed: 217000

Value of kinact/KI reported for the molecule NC(=O)C[C@H](NC(=O)c1ccc2ccccc2n1)C(=O)NC[C@@H]1O[C@@H]1[C@H](Cc1ccccc1)NC(=O)[C@H](CC(N)=O)NC(=O)c1ccc2ccccc2n1 is 6670

Value of measured kinact/KI for the entry NC(=O)C[C@H](NC(=O)c1ccc2ccccc2n1)C(=O)N[C@@H](Cc1ccccc1)[C@H]1O[C@H]1CNC(=O)[C@@H](NC=O)c1ccccc1 : 4170

Please fill in: kinact/KI reported for CC(C)[C@H](NC(=O)OCc1ccccc1)C(=O)N[C@@H](Cc1ccccc1)[C@H]1O[C@H]1CNC(=O)OC(C)(C)C = 40000

kinact/KI reported for this molecule CNC(=O)[C@@H](NC(=O)C[C@@H]1O[C@@H]1[C@H](Cc1ccccc1)NC(=O)[C@H](CC(N)=O)NC(=O)c1ccc2ccccc2n1)C(C)C : 183000

For record CC[C@H](C)[C@H](NC(=O)C[C@@H]1O[C@@H]1[C@H](Cc1ccccc1)NC(=O)[C@H](CC(N)=O)NC(=O)c1ccc2ccccc2n1)C(=O)N[C@H](C(=O)OC)C(C)C the listed kinact/KI is 5170

GET /value?item= CC(C)[C@H](CCCc1ccccc1)NC(=O)C[C@@H]1O[C@@H]1[C@H](Cc1ccccc1)NC(=O)[C@H](CC(N)=O)NC(=O)c1ccc2ccccc2n1 &field=kinact/KI returns 3.33e+07

Note to self: kinact/KI recorded for COC(=O)C(CCC(N)=O)NC(=O)C[C@@H]1O[C@@H]1[C@H](Cc1ccccc1)NC(=O)[C@H](CC(N)=O)NC(=O)c1ccc2ccccc2n1 (some centres unmarked) was 13500

Entry CC(C)[C@H](NC(=O)OCc1ccccc1)C(=O)N[C@@H](Cc1ccccc1)[C@H]1O[C@H]1CNC(=O)[C@H](CC(N)=O)NC(=O)OCc1ccccc1 — recorded kinact/KI = 383

Lookup result for CC(C)CC[C@@H]1O[C@@H]1[C@H](Cc1ccccc1)NC(=O)[C@H](CC(N)=O)NC(=O)OCc1ccccc1 ; measured kinact/KI: 1830

The recorded kinact/KI for entry CC(C)(C)OC(=O)NC[C@@H]1O[C@@H]1[C@H](Cc1ccccc1)NC(=O)[C@H](CC(N)=O)NC(=O)c1ccc2ccccc2n1 equals 50000

The molecule listed as NC(=O)CC[C@H](NC(=O)OCc1ccccc1)C(=O)N[C@@H](Cc1ccccc1)[C@H]1O[C@H]1CCc1ccccc1 shows kinact/KI equal to 1670

Form: molecule = CC(C)C(NC(=O)C[C@@H]1O[C@@H]1[C@H](Cc1ccccc1)NC(=O)[C@H](CC(N)=O)NC(=O)c1ccc2ccccc2n1)C(C)C ; kinact/KI = 3000

// C[C@H](NC(=O)OCc1ccccc1)C(=O)N[C@@H](CC(N)=O)C(=O)N[C@@H](Cc1ccccc1)[C@H]1O[C@H]1CCc1ccccc1 : kinact/KI value = 4500

Given item CC(C)[C@H](NC(=O)C[C@@H]1O[C@@H]1[C@H](Cc1ccccc1)NC(=O)[C@H](CC(N)=O)NC(=O)c1ccc2ccccc2n1)c1ccccc1 , the value recorded as its kinact/KI is 3.17e+06

Just so you know, measured kinact/KI for COC(=O)C(Cc1ccccc1)NC(=O)C(CCC(N)=O)NC(=O)C[C@@H]1O[C@@H]1[C@H](Cc1ccccc1)NC(=O)[C@H](CC(N)=O)NC(=O)c1ccc2ccccc2n1 (some centres unmarked) came out at 11800

Looking up NC(=O)C[C@H](NC(=O)c1ccc2ccccc2n1)C(=O)N[C@@H](Cc1ccccc1)[C@H]1O[C@H]1CNC(=O)[C@H](Cc1ccccc1)NC=O , I see its kinact/KI listed as 2330

So, COC(=O)C(NC(=O)C(CCC(N)=O)NC(=O)C[C@@H]1O[C@@H]1[C@H](Cc1ccccc1)NC(=O)[C@H](CC(N)=O)NC(=O)COc1cccc2ccccc12)C(C)C (some centres unmarked) ? Its kinact/KI was 6000

Record CC(C)(C)OC(=O)N[C@@H](Cc1ccccc1)[C@H]1O[C@H]1CCc1ccccc1 , field kinact/KI: 118

Documented kinact/KI of NC(=O)C[C@H](NC(=O)[C@H](Cc1ccccc1)NC(=O)CCN1CCOCC1)C(=O)N[C@@H](Cc1ccccc1)[C@H]1O[C@H]1CCc1ccccc1 : 23300

Attribution: patent US5744621A
